target.system: human GABAA α5β2γ1 receptor (Homo sapiens (Human), UniProt P31644+Q8N1C3)
assay.explanation: Radioligand binding assay, competition for [3H]RO7239181, γ1-containing GABAA subtypes
property.measured: pKi
Value format note: pKi is -log10 of concentration (mol/L); just state the number.

Prompt: Given the molecule Cc1nnc2n1-c1sc3c(c1C(c1c(F)cccc1F)=NC2)CCCCO3 [Example 18] , what is its reported pKi?
Response: 8.74

Prompt: Fill in: pKi of C[C@@H]1N=C(c2c(F)cccc2F)c2c(sc3c2COCCC3)-n2nc(C(=O)NCC3(O)CC3)nc21 [Example 62] is ___
Response: 8.23

Prompt: Name the reported pKi value associated with the molecule Cc1cn2c(n1)[C@H](C)N=C(c1c(F)cccc1F)c1c-2sc2c1COCCC2 [Example 58]
Response: 8.59

Prompt: Fill in the blank: the reported pKi of C[C@@H]1N=C(c2c(F)cccc2F)c2c(sc3c2COCCO3)-n2nc(C(=O)NCC3(O)CC3)nc21 [Example 60] is ____.
Response: 8.54

Prompt: If you can, please state the reported pKi value of Cc1nnc2n1-c1sc3c(c1C(c1c(F)cccc1F)=N[C@H]2C)COCC[C@H]3F [Example 54] .
Response: 8.04
